# Test system: Streptococcus mitis
# ASSAY NAME: In vitro antibacterial activity (MIC), two-fold dilution in microtiter system
# Type: cell-based
# RUN CONDITIONS: 1 tested strain, clinical isolate, Todd-Hewitt broth, 18-24 h at 37° C.
RECORDED ENDPOINT: M.I.C. (µg/mL)
Answer format: numeric, µg/mL implied, no suffix.

[
  {
    "COMPOUND": "CC(=O)N[C@H]1[C@H](O[C@@H]2c3ccc(c(Cl)c3)Oc3cc4cc(c3O[C@@H]3O[C@H](CO)[C@@H](O)[C@H](O)[C@H]3NC(=O)CCCCCCCC(C)C)Oc3ccc(cc3Cl)C[C@H]3NC(=O)[C@H](N)c5ccc(O)c(c5)Oc5cc(O)cc(c5)[C@H](NC3=O)C(=O)N[C@H]4C(=O)N[C@H]3C(=O)N[C@@H]2C(=O)N[C@H](C(=O)O)c2cc(O)cc(O[C@H]4O[C@H](CO)[C@@H](O)[C@H](O)[C@@H]4O)c2-c2cc3ccc2O)O[C@H](CO)[C@@H](O)[C@@H]1O",
    "RECORDED ENDPOINT": "M.I.C.",
    "ASSAY RESULT": 0.025
  }
]

Turning now to a further record.
Request: Any idea what its M.I.C. is? The compound is CCC(C)CCCCCCC(=O)N[C@H]1[C@H](Oc2c3cc4cc2Oc2ccc(cc2Cl)[C@@H](O[C@@H]2O[C@H](CO)[C@@H](O)[C@H](O)[C@H]2NC(C)=O)[C@@H]2NC(=O)[C@H](NC(=O)[C@@H]4NC(=O)[C@H]4NC(=O)[C@@H](Cc5ccc(c(Cl)c5)O3)NC(=O)[C@H](N)c3ccc(O)c(c3)Oc3cc(O)cc4c3)c3ccc(O)c(c3)-c3c(O[C@H]4O[C@H](CO)[C@@H](O)[C@H](O)[C@@H]4O)cc(O)cc3[C@@H](C(=O)O)NC2=O)O[C@H](CO)[C@@H](O)[C@@H]1O (some centres unmarked)
Result: 0.025

----------
Reported M.I.C. is given for each of the following compounds.
# Test system: Streptococcus bovis
# ASSAY NAME: In vitro antibacterial activity (MIC), two-fold dilution in microtiter system
# Format: cell-based
# RUN CONDITIONS: 1 tested strain, clinical isolate, Todd-Hewitt broth, 18-24 h at 37° C.
Answer with the number, then the unit.

[
  {
    "COMPOUND": "CCC(C)CCCCCCC(=O)N[C@H]1[C@H](Oc2c3cc4cc2Oc2ccc(cc2Cl)[C@@H](O[C@@H]2O[C@H](CO)[C@@H](O)[C@H](O)[C@H]2NC(C)=O)[C@@H]2NC(=O)[C@H](NC(=O)[C@@H]4NC(=O)[C@H]4NC(=O)[C@@H](Cc5ccc(c(Cl)c5)O3)NC(=O)[C@H](N)c3ccc(O)c(c3)Oc3cc(O)cc4c3)c3ccc(O)c(c3)-c3c(O[C@H]4O[C@H](CO)[C@@H](O)[C@H](O)[C@@H]4O)cc(O)cc3[C@@H](C(=O)O)NC2=O)O[C@H](CO)[C@@H](O)[C@@H]1O (some centres unmarked)",
    "M.I.C.": "0.4 µg/mL"
  }
]

Turning now to a further record.
Request: Any idea what its M.I.C. is? The compound is CCCCCCCCCC(=O)N[C@H]1[C@H](Oc2c3cc4cc2Oc2ccc(cc2Cl)[C@@H](O[C@@H]2O[C@H](CO)[C@@H](O)[C@H](O)[C@H]2NC(C)=O)[C@@H]2NC(=O)[C@H](NC(=O)[C@@H]4NC(=O)[C@H]4NC(=O)[C@H](Cc5ccc(c(Cl)c5)O3)NC(=O)[C@H](N)c3ccc(O)c(c3)Oc3cc(O)cc4c3)c3ccc(O)c(c3)-c3c(O[C@H]4O[C@H](CO)[C@@H](O)[C@H](O)[C@@H]4O)cc(O)cc3[C@@H](C(=O)O)NC2=O)O[C@H](CO)[C@@H](O)[C@@H]1O
Result: 0.2 µg/mL

----------
# Test system: Staphylococcus aureus
# ASSAY NAME: In vitro antibacterial activity (MIC), two-fold dilution in microtiter system
# Type: cell-based
# RUN CONDITIONS: 5 tested strains, clinical isolates, Penassay broth, 18-24 h at 37° C.
RECORDED ENDPOINT: M.I.C.

Request: Hi! What's the reported M.I.C. for CCC(C)CCCCCCC(=O)N[C@H]1[C@H](Oc2c3cc4cc2Oc2ccc(cc2Cl)[C@@H](O[C@@H]2O[C@H](CO)[C@@H](O)[C@H](O)[C@H]2NC(C)=O)[C@@H]2NC(=O)[C@H](NC(=O)[C@@H]4NC(=O)[C@H]4NC(=O)[C@@H](Cc5ccc(c(Cl)c5)O3)NC(=O)[C@H](N)c3ccc(O)c(c3)Oc3cc(O)cc4c3)c3ccc(O)c(c3)-c3c(O[C@H]4O[C@H](CO)[C@@H](O)[C@H](O)[C@@H]4O)cc(O)cc3[C@@H](C(=O)O)NC2=O)O[C@H](CO)[C@@H](O)[C@@H]1O (stereo partly shown) on Staphylococcus aureus?
Result: 0.2 to 0.8 µg/mL

----------
# Test system: Streptococcus pneumoniae
# ASSAY NAME: In vitro antibacterial activity (MIC), two-fold dilution in microtiter system
# Type: cell-based
# RUN CONDITIONS: 6 tested strains, clinical isolates, Todd-Hewitt broth, 18-24 h at 37° C.
Reported M.I.C. is given for each of the following molecules.

Examples with their reported M.I.C. follow.
[
  {
    "MOL SMILES": "CC(=O)N[C@H]1[C@H](O[C@@H]2c3ccc(c(Cl)c3)Oc3cc4cc(c3O[C@@H]3O[C@H](CO)[C@@H](O)[C@H](O)[C@H]3NC(=O)CCCCCCCC(C)C)Oc3ccc(cc3Cl)C[C@H]3NC(=O)[C@H](N)c5ccc(O)c(c5)Oc5cc(O)cc(c5)[C@H](NC3=O)C(=O)N[C@H]4C(=O)N[C@H]3C(=O)N[C@@H]2C(=O)N[C@H](C(=O)O)c2cc(O)cc(O[C@H]4O[C@H](CO)[C@@H](O)[C@H](O)[C@@H]4O)c2-c2cc3ccc2O)O[C@H](CO)[C@@H](O)[C@@H]1O",
    "RECORDED ENDPOINT": "M.I.C.",
    "ASSAY RESULT": "0.05 to 0.1 µg/mL"
  },
  {
    "MOL SMILES": "CC(=O)N[C@H]1[C@H](O[C@@H]2c3ccc(c(Cl)c3)Oc3cc4cc(c3O[C@@H]3O[C@H](CO)[C@@H](O)[C@H](O)[C@H]3NC(=O)CCCCCCC(C)C)Oc3ccc(cc3Cl)C[C@H]3NC(=O)[C@H](N)c5ccc(O)c(c5)Oc5cc(O)cc(c5)[C@H](NC3=O)C(=O)N[C@H]4C(=O)N[C@H]3C(=O)N[C@@H]2C(=O)N[C@H](C(=O)O)c2cc(O)cc(O[C@H]4O[C@H](CO)[C@@H](O)[C@H](O)[C@@H]4O)c2-c2cc3ccc2O)O[C@H](CO)[C@@H](O)[C@@H]1O",
    "RECORDED ENDPOINT": "M.I.C.",
    "ASSAY RESULT": "0.05 to 0.1 µg/mL"
  }
]

Turning now to a further record.
Request: Any idea what its M.I.C. is? The molecule is CCCCC/C=C\CCC(=O)N[C@H]1[C@H](Oc2c3cc4cc2Oc2ccc(cc2Cl)[C@@H](O[C@@H]2O[C@H](CO)[C@@H](O)[C@H](O)[C@H]2NC(C)=O)[C@@H]2NC(=O)[C@H](NC(=O)[C@@H]4NC(=O)[C@H]4NC(=O)[C@@H](Cc5ccc(c(Cl)c5)O3)NC(=O)[C@H](N)c3ccc(O)c(c3)Oc3cc(O)cc4c3)c3ccc(O)c(c3)-c3c(O[C@H]4O[C@H](CO)[C@@H](O)[C@H](O)[C@@H]4O)cc(O)cc3[C@@H](C(=O)O)NC2=O)O[C@H](CO)[C@@H](O)[C@@H]1O
Result: 0.1 to 0.2 µg/mL

----------
# ASSAY NAME: Solubility
# Format: physicochemical
# RUN CONDITIONS: methanol, ethanol

[
  {
    "MOLECULE": "CC(=O)N[C@H]1[C@H](O[C@@H]2c3ccc(c(Cl)c3)Oc3cc4cc(c3O[C@@H]3O[C@H](CO)[C@@H](O)[C@H](O)[C@H]3NC(=O)CCCCCCCC(C)C)Oc3ccc(cc3Cl)C[C@H]3NC(=O)[C@H](N)c5ccc(O)c(c5)Oc5cc(O)cc(c5)[C@H](NC3=O)C(=O)N[C@H]4C(=O)N[C@H]3C(=O)N[C@@H]2C(=O)N[C@H](C(=O)O)c2cc(O)cc(O[C@H]4O[C@H](CO)[C@@H](O)[C@H](O)[C@@H]4O)c2-c2cc3ccc2O)O[C@H](CO)[C@@H](O)[C@@H]1O [Teichomycin A2 factor 5]",
    "solubility in methanol and ethanol": "poorly soluble"
  },
  {
    "MOLECULE": "CC(=O)N[C@H]1[C@H](O[C@@H]2c3ccc(c(Cl)c3)Oc3cc4cc(c3O[C@@H]3O[C@H](CO)[C@@H](O)[C@H](O)[C@H]3NC(=O)CCCCCCC(C)C)Oc3ccc(cc3Cl)C[C@H]3NC(=O)[C@H](N)c5ccc(O)c(c5)Oc5cc(O)cc(c5)[C@H](NC3=O)C(=O)N[C@H]4C(=O)N[C@H]3C(=O)N[C@@H]2C(=O)N[C@H](C(=O)O)c2cc(O)cc(O[C@H]4O[C@H](CO)[C@@H](O)[C@H](O)[C@@H]4O)c2-c2cc3ccc2O)O[C@H](CO)[C@@H](O)[C@@H]1O [Teichomycin A2 factor 2]",
    "solubility in methanol and ethanol": "poorly soluble"
  }
]
